Origin of values: patent US7709509B2

- target_or_test_system: human PPARalpha (Homo sapiens)
- Construct: human PPARalpha receptor (amino acids S167-Y468)
- Sequence (Q07869 167-468): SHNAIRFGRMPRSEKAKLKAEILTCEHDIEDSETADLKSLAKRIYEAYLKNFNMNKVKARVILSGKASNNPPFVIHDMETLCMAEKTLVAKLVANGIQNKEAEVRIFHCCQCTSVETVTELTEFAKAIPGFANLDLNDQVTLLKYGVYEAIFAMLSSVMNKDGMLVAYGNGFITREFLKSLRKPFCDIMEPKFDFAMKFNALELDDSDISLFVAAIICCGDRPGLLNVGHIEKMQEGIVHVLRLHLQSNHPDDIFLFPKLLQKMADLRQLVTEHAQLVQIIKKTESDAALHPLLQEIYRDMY
- experiment: Cellular PPARalpha assay (HEK PPARalpha reporter cell line, luciferase)
- setup_conditions: GR-GAL4-humanPPARalpha-LBD
EC50 vs 400 nM: less than gives YES; not less than gives NO.

Some solved cases for reference:
Q: I wonder whether O=c1[nH]c(-c2ccc(OCc3sc(-c4ccc(C(F)(F)F)cc4)nc3CCCOCc3ccccc3)cc2Cl)no1 has EC50 below 400 nM. Can you tell?
Result: NO

Q: Can you handle CCCCc1nc(-c2ccc(C(F)(F)F)cc2)sc1COc1ccc(-c2noc(=O)[nH]2)c(C(F)(F)F)c1 next?
Result: YES

Q: Can you handle Cc1nc(-c2ccc(C(F)(F)F)cc2)sc1COc1ccc(-c2noc(=O)[nH]2)c(Cl)c1 next?
Result: NO

Q: Can you handle Cc1sc(-c2ccc(S(F)(F)(F)(F)F)cc2)nc1CCOc1ccc(-c2noc(=O)[nH]2)c(Cl)c1 next?
Result: YES

# input for lookup
Q: I wonder whether O=c1[nH]c(-c2ccc(OCc3sc(-c4ccc(C(F)(F)F)cc4)nc3CCCCO)cc2Cl)no1 has EC50 below 400 nM. Can you tell?
Result: NO
